MEASURED_ON: GPR139 (Homo sapiens)
EXPERIMENT: IP-One HTRF assay measuring Gq activation in CHO-139
Assay type: cell-based
EXPERIMENTAL_PARAMETERS: IP-One HTRF assay, CHO-139, 20 mM LiCl
MEASUREMENT_TYPE: log10 EC50 (log10 of the value in µM)
The common logarithm of EC50 in µM is what is listed.

Previously resolved entries follow.
>>> numeric_result("O=C(NCC(=O)N1CCCC1c1ccccc1)c1ccc2c(c1)OCO2 (stereo not shown)")
0.62
>>> numeric_result("CC(NC(=O)CNC(=O)c1cccc(Cl)c1)c1ccccc1 (racemic) [7c (racemic)]")
-0.31
>>> numeric_result("COc1cc(OC)cc(C(=O)NNC(=O)C2CCCc3ccccc32)c1 (stereo not shown)")
-0.12

GET /values?readout=log10 EC50&item= O=C(Cc1cccc2ccccc12)NNC(=O)c1ccc2c(c1)OCO2
0.75

GET /values?readout=log10 EC50&item= O=C(CN1CCCc2ccccc21)NNC(=O)c1ccc2c(c1)OCO2
0.62

GET /values?readout=log10 EC50&item= CCn1c(C)nc2cc(C(=O)NNC(=O)Cc3cccc4ccccc34)ccc21
0.98

GET /values?readout=log10 EC50&item= O=C(CNC(=O)c1ccc2c(c1)OCO2)NC1CCSc2ccc(F)cc21 (stereo not shown)
0.70

GET /values?readout=log10 EC50&item= COc1cc(OC)cc(C(=O)NNC(=O)Nc2cccc3ccccc23)c1
0.02

GET /values?readout=log10 EC50&item= N[C@@H](Cc1ccccc1)C(=O)O
3.65

* * *

MEASURED_ON: GPR139 (Homo sapiens, UniProt Q6DWJ6)
EXPERIMENT: Fluo-4 Ca2+-assay in CHO-k1 cells stably expressing GPR139 (CHO-GPR139)
Assay type: cell-based
EXPERIMENTAL_PARAMETERS: CHO-GPR139, mean of at least three experiments
Measured EC50 of individual entries
The figure you give is taken to be in nM; do not add the unit.

GET /values?readout=EC50&item= CN(C(=O)CNC(=O)c1ccc2c(c1)OCO2)C1CCc2ccccc21 (centres unmarked)
1090

* * *

MEASURED_ON: GPR139 (Homo sapiens)
Sequence (Q6DWJ6 1-353): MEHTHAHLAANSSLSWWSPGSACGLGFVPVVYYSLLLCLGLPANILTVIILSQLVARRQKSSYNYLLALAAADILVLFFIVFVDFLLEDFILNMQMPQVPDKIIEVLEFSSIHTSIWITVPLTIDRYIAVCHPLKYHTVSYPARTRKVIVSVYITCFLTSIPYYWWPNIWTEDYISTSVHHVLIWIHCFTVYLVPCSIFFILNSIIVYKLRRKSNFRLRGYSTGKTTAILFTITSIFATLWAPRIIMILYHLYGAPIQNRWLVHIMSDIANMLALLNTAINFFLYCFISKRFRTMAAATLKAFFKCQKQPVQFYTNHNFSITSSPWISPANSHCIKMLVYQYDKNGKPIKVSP
EXPERIMENT: Fluo-4 Ca2+-assay in CHO-k1 cells stably expressing GPR139 (CHO-GPR139)
Type: cell-based
EXPERIMENTAL_PARAMETERS: CHO-K1, relative to 1a
Procedure: Compound 1a[11] was kindly provided by H. Lundbeck A/S, Denmark. Compound 7c (Enamine no: Z31449867) was tested as a racemate, as the (S)-form described by Janssen et al. was not commercially available. […] 30.000 cells/well were plated in black 96-well plates with flat clear bottoms (Corning, Falcon, 353219) and incubated overnight. […] Intracellular calcium change was recorded on a NOVOstar instrument (BMG Labtech) at 37 °C with an excitation filter of 485 nm and an emission filters 520 nm. […]
Measured Emax of individual entries
The figure you give is taken to be in %; do not add the unit.

Previously resolved entries follow.
>>> numeric_result("CN(C(=O)CNC(=O)c1ccc2c(c1)OCO2)C1CCc2ccccc21 (stereo not drawn)")
101
>>> numeric_result("COc1cc(OC)cc(C(=O)NCCC(=O)N2CCCc3ccccc32)c1")
91
>>> numeric_result("CCn1c(C)nc2cc(C(=O)NNC(=O)Cc3cccc4ccccc34)ccc21")
97
>>> numeric_result("C=C(C)c1cccc(C(C)(C)NC(=O)NNC(=O)c2ccc3c(c2)nc(C)n3CC)c1")
100
>>> numeric_result("CCn1c(C)nc2cc(C(=O)NNC(=O)Cc3coc4ccc5ccccc5c34)ccc21")
95
>>> numeric_result("O=C(CN1CCCc2ccccc21)NNC(=O)c1ccc2[nH]cnc2c1")
96

GET /values?readout=Emax&item= O=C(NCC(=O)N1CCCC1c1ccccc1)c1ccc2c(c1)OCO2 (stereo not drawn)
94

GET /values?readout=Emax&item= O=C(Cc1cccc2ccccc12)NNC(=O)c1ccc2c(c1)OCO2
91

GET /values?readout=Emax&item= CCn1c(C)nc2cc(C(=O)NNC(=O)CC(C)c3ccccc3)ccc21 (stereo not drawn)
85

GET /values?readout=Emax&item= O=C(CNC(=O)c1ccc2c(c1)OCO2)NC1CCSc2ccc(F)cc21 (stereo not drawn)
89

GET /values?readout=Emax&item= COc1cc(OC)cc(C(=O)NNC(=O)C2CCCc3ccccc32)c1 (stereo not drawn)
109

GET /values?readout=Emax&item= O=C(CN1CCCc2ccccc21)NNC(=O)c1ccc2c(c1)OCO2
105

* * *

MEASURED_ON: GPR139 (Homo sapiens, UniProt Q6DWJ6)
Sequence (Q6DWJ6 1-353): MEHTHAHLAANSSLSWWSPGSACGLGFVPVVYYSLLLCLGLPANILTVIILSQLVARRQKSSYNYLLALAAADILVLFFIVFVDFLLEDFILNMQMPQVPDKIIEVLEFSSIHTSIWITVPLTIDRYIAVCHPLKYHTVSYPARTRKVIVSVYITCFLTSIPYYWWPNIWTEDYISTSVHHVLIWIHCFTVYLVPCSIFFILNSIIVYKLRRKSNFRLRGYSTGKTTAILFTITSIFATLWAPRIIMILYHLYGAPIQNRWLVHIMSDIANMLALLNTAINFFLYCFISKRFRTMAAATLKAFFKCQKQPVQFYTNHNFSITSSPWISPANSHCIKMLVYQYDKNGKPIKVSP
EXPERIMENT: Fluo-4 Ca2+-assay in CHO-k1 cells stably expressing GPR139 (CHO-GPR139)
Type: cell-based
EXPERIMENTAL_PARAMETERS: CHO-GPR139, mean of at least three experiments
Protocol: Compound 1a[11] was kindly provided by H. Lundbeck A/S, Denmark. Compound 7c (Enamine no: Z31449867) was tested as a racemate, as the (S)-form described by Janssen et al. was not commercially available. […] 30.000 cells/well were plated in black 96-well plates with flat clear bottoms (Corning, Falcon, 353219) and incubated overnight. […] Intracellular calcium change was recorded on a NOVOstar instrument (BMG Labtech) at 37 °C with an excitation filter of 485 nm and an emission filters 520 nm. […]
Sorting guide: entries reporting EC50 beneath 1000 nM go in the satisfied pile, the rest go in the not satisfied pile.

Known results for compounds:
>>> group("CCn1c(C)nc2cc(C(=O)NNC(=O)Cc3cccc4ccccc34)ccc21")
"satisfied"
>>> group("O=C(CN1CCCc2ccccc21)NNC(=O)c1ccc2[nH]cnc2c1")
"not satisfied"
>>> group("O=C(CNC(=O)c1ccc2c(c1)OCO2)NC1CCSc2ccc(F)cc21 (stereo not shown)")
"satisfied"
>>> group("COc1cc(OC)cc(C(=O)NCCC(=O)N2CCCc3ccccc32)c1")
"not satisfied"
>>> group("O=C(NCC(=O)N1CCCC1c1ccccc1)c1ccc2c(c1)OCO2 (stereo not shown)")
"satisfied"

// next entry
Bench note: check whether C=C(C)c1cccc(C(C)(C)NC(=O)NNC(=O)c2ccc3c(c2)nc(C)n3CC)c1 shows EC50 below 1000 nM
not satisfied

* * *

MEASURED_ON: GPR139 (Homo sapiens)
EXPERIMENT: Fluo-4 Ca2+-assay in CHO-k1 cells stably expressing GPR139 (CHO-GPR139)
Type: cell-based
EXPERIMENTAL_PARAMETERS: values in text
MEASUREMENT_TYPE: pEC50
Scale explanation: pEC50 corresponds to minus log10 of a concentration expressed in moles per litre.

GET /values?readout=pEC50&item= CCn1c(C)nc2cc(C(=O)NNC(=O)Cc3coc4ccc5ccccc5c34)ccc21
5.99

* * *

MEASURED_ON: UniProt:Q6DWJ6
EXPERIMENT: Fluo-4 Ca2+-assay in CHO-k1 cells stably expressing GPR139 (CHO-GPR139)
Assay type: cell-based
EXPERIMENTAL_PARAMETERS: CHO-GPR139, mean of at least three experiments
MEASUREMENT_TYPE: EC50 (nM)
The figure you give is taken to be in nM; do not add the unit.

Previously resolved entries follow.
>>> numeric_result("O=C(CN1CCCc2ccccc21)NNC(=O)c1ccc2c(c1)OCO2 [DL22]")
442
>>> numeric_result("CCn1c(C)nc2cc(C(=O)NNC(=O)CC(C)c3ccccc3)ccc21 (stereo not drawn) [DL146]")
4720
>>> numeric_result("COc1cc(OC)cc(C(=O)NNC(=O)C2CCCc3ccccc32)c1 (stereo not drawn) [DL24]")
431

Please examine the following record next.
Find EC50 (UniProt:Q6DWJ6) for the entry O=C(Cc1cccc2ccccc12)NNC(=O)c1ccc2c(c1)OCO2 [DL126]
411

Origin of the recorded values: paper PMC5103216
